- System: HEK-293T
- METHOD NOTES: Multiplex assay against HEK293T
- Type: toxicity, cell-based
- RUN CONDITIONS: human, 48 h, 10 µM, compound concentration 10 uM, replicate 2
Measured Population Membrane Permeable-Phenotype (%) of individual entries
REPORTED PROPERTY: Population Membrane Permeable-Phenotype (%)

>  <MOLECULE>
CCCCC(=O)N(Cc1ccc(-c2ccccc2-c2nnn[nH]2)cc1)[C@H](C(=O)O)C(C)C

>  <TARGET UNDER TEST>
HEK-293T

>  <UNIT NAME>
%

>  <RECORDED VALUE>
0

$$$$
>  <MOLECULE>
CN1CCN(c2cc(-c3ccccc3)nc(N)n2)CC1

>  <TARGET UNDER TEST>
HEK-293T

>  <UNIT NAME>
%

>  <RECORDED VALUE>
1

$$$$
>  <MOLECULE>
CC(C)(C)c1cc(NC(=O)Nc2ccc(-c3cn4c(n3)sc3cc(OCCN5CCOCC5)ccc34)cc2)no1 [QUIZARTINIB]

>  <TARGET UNDER TEST>
HEK-293T

>  <UNIT NAME>
%

>  <RECORDED VALUE>
0

$$$$
>  <MOLECULE>
Br.CS(=O)(=O)Nc1c(O)ccc2c1CCCC2C1=NCCN1 (stereo unspecified)

>  <TARGET UNDER TEST>
HEK-293T

>  <UNIT NAME>
%

>  <RECORDED VALUE>
0

$$$$
>  <MOLECULE>
CC[C@@H](C)Nc1nc(C)nc2c(-c3ccc(OC)nc3C)c(C)nn12 [PEXACERFONT]

>  <TARGET UNDER TEST>
HEK-293T

>  <UNIT NAME>
%

>  <RECORDED VALUE>
0

$$$$
>  <MOLECULE>
NCCc1cn(S(=O)(=O)c2c(Cl)nc3sccn23)c2ccccc12.O=C(O)C(=O)O

>  <TARGET UNDER TEST>
HEK-293T

>  <UNIT NAME>
%

>  <RECORDED VALUE>
1

$$$$
>  <MOLECULE>
O=C(CCCc1ccccc1)Nc1nc2ccccc2c(=O)s1

>  <TARGET UNDER TEST>
HEK-293T

>  <UNIT NAME>
%

>  <RECORDED VALUE>
1

$$$$
>  <MOLECULE>
CCC(=O)N1CCN(c2ccc(-n3c(=O)ccc4cnc5ccc(-c6cnc7ccccc7c6)cc5c43)cc2C(F)(F)F)CC1 [TORIN1]

>  <TARGET UNDER TEST>
HEK-293T

>  <UNIT NAME>
%

>  <RECORDED VALUE>
1

$$$$
>  <MOLECULE>
Cc1noc(-c2ccc(-c3ccc(CC(=O)O)cc3)cc2)c1NC(=O)O[C@H](C)c1ccccc1Cl

>  <TARGET UNDER TEST>
HEK-293T

>  <UNIT NAME>
%

>  <RECORDED VALUE>
1

$$$$
>  <MOLECULE>
Cc1onc(-c2ccccc2Cl)c1C(=O)N(C)c1ccc(Cl)cc1

>  <TARGET UNDER TEST>
HEK-293T

>  <UNIT NAME>
%

>  <RECORDED VALUE>
0

$$$$
>  <MOLECULE>
Cc1c(CC(=O)O)c2cccnc2n1Cc1ccc(S(C)(=O)=O)cc1C(F)(F)F [FEVIPIPRANT]

>  <TARGET UNDER TEST>
HEK-293T

>  <UNIT NAME>
%

>  <RECORDED VALUE>
1

$$$$
